Measured hGLP1R cAMP EC50 ratio by item
target: human GLP-1 receptor (GLP-1R) (human, UniProt P43220 24-463); test: cell-based or functional assay
Numbered stars: 1 amine (or outer) side, 2 acyl side, 3 side chain; on linkers, the order of the positions; unused ones are H or OH. Square brackets hold non-standard residues; d marks the D form. Side chains are listed from the residue outwards. Ends that are not written are not given here. * marks the point of attachment. C20 diacid = O=C(O)CCCCCCCCCCCCCCCCCCC(=O)*; αMePhe(2-F) = C[C@](N)(Cc1ccccc1F)C(=O)O; γGlu = O=C(O)[C@H](CCC(=O)[*:2])N[*:1]; Desaminotyrosyl = O=C(CCc1ccc(O)cc1)*; αMeF = C[C@](N)(Cc1ccccc1)C(=O)O; cTA = not defined here; AEEA = NCCOCCOCC(=O)O; Aib = CC(C)(N)C(=O)O
Please state the value as a number alone, without comment.

>>> obs_value("Y[Aib]EGT[αMeF]TSDYSIXLDKKAQ[Aib]IFIEYLIEGGPSSGAPPPS-NH2 (not fully specified (residues 13, 17); printed as Y-Aib-EGT-αMeF-TSDYSI-αMeF-LDKK((2-[2-(2-Amino-ethoxy)-ethoxy]-acetyl)2-(γ-Glu)-CO-(CH2)18-CO2H)AQ-Aib-IFIEYLIEGGPSSGAPPPS-NH2) [Example 141]")
0.414
>>> obs_value("Y[Aib]EGT[αMePhe(2-F)]TSDYSIXLDEKAQ[Aib]EFIQYLIEGGPSSGAPPPS-NH2 (not fully specified (residues 13, 17); printed as Y-Aib-EGT-αMeF(2F)-TSDYSI-αMeF-LDEK((2-[2-(2-Amino-ethoxy)-ethoxy]-acetyl)2-(γ-Glu)-CO-(CH2)18-CO2H)AQ-Aib-EFIQYLIEGGPSSGAPPPS-NH2) [Example 146]")
0.951
>>> obs_value("Y[Aib]EGT[αMeF]TSDASIXLDKKAQ[Aib]AFIEYLIEGGPSSGAPPPS-NH2 (not fully specified (residues 13, 17); printed as Y-Aib-EGT-αMeF-TSDASI-αMeF-LDKK((2-[2-(2-Amino-ethoxy)-ethoxy]-acetyl)2-(γ-Glu)-CO-(CH2)18-CO2H)AQ-Aib-AFIEYLIEGGPSSGAPPPS-NH2) [Example 145]")
1.22

### Prompt Name the recorded hGLP1R cAMP EC50 ratio of the binder listed here: HXEGTXTSDXSIXLDEKAQXEFIXYLIEGGPSSGAPPPS (H-Aib-EGT-αMeF(2F)-TSD-3Pal-SI-αMeF-LDEK((2-[2-(2-Amino-ethoxy)-ethoxy]-acetyl)2-(γ-Glu)-CO-(CH2)18-CO2H)AQ-Aib-EFI-(D-Glu)-YLIEGGPSSGAPPPS-NH2) [Example 190]
### Response 2.2

### Prompt Consider the binder YXEGTXTSDXSILLDXKAQXEFIXYLIEGGPSSGAPPPS (Y-Aib-EGT-αMeF(2F)-TSD-4Pal-SILLD-Dab-K((2-[2-(2-Amino-ethoxy)-ethoxy]-acetyl)2-(γ-Glu)-CO-(CH2)16-CO2H)AQ-Aib-EFI-(D-Glu)-YLIEGGPSSGAPPPS-NH2) [Example 234] and give its recorded hGLP1R cAMP EC50 ratio.
### Response 0.317

### Prompt State its hGLP1R cAMP EC50 ratio: Y[Aib]EGT[αMePhe(2-F)]TSDYSIXLDEKAQ[Aib]EFIHYLIEGGPSSGAPPPS-NH2 (not fully specified (residues 13, 17); printed as Y-Aib-EGT-αMeF(2F)-TSDYSI-αMeF-LDEK((2-[2-(2-Amino-ethoxy)-ethoxy]-acetyl)2-(γ-Glu)-CO-(CH2)18-CO2H)AQ-Aib-EFIHYLIEGGPSSGAPPPS-NH2) [Example 153]
### Response 0.501

### Prompt Find the measured hGLP1R cAMP EC50 ratio of [Desaminotyrosyl][Aib]EGTFTSDYSILLDEK([AEEA-AEEA-γGlu-C20 diacid])AQQAFIEYLIEGGPSSGAPPPS-NH2 [Example 199] and report it.
### Response 1.11

### Prompt State its hGLP1R cAMP EC50 ratio for this binder: YXEGTXTSDESILLDKKAQXAFIEYLIEGGPSSGAPPPS (Y-Aib-EGT-αMeF-TSDESILLDKK((2-[2-(2-Amino-ethoxy)-ethoxy]-acetyl)2-(γ-Glu)-CO-(CH2)18-CO2H)AQ-Aib-AFIEYLIEGGPSSGAPPPS-NH2) [Example 130]
### Response 0.182

### Prompt Please report the measured hGLP1R cAMP EC50 ratio for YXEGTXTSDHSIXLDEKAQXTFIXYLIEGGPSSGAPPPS (Y-Aib-EGT-αMeF(2F)-TSDHSI-αMeF-LDEK((2-[2-(2-Amino-ethoxy)-ethoxy]-acetyl)2-CO-(CH2)18-CO2H)AQ-Aib-TFI-(D-Glu)-YLIEGGPSSGAPPPS-NH2) [Example 174]
### Response 0.0968

### Prompt Look up and report measured hGLP1R cAMP EC50 ratio for this entry: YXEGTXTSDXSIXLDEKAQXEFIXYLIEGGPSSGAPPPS (Y-Aib-EGT-αMeF(2F)-TSD-3Pal-SI-αMeF-LDEK((2-[2-(2-Amino-ethoxy)-ethoxy]-acetyl)2-(γ-Glu)-CO-(CH2)18-CO2H)AQ-Aib-EFI-(D-Glu)-YLIEGGPSSGAPPPS-NH2) [Example 181]
### Response 0.718

### Prompt Note down hGLP1R cAMP EC50 ratio recorded for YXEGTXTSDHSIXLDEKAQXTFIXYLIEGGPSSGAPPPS (Y-Aib-EGT-αMeF(2F)-TSDHSI-αMeF-LDEK((2-[2-(2-Amino-ethoxy)-ethoxy]-acetyl)2-(γ-Glu)-CO-(CH2)14-CO2H)AQ-Aib-TFI-(D-Glu)-YLIEGGPSSGAPPPS-NH2) [Example 170]
### Response 0.00438

### Prompt Tell us which hGLP1R cAMP EC50 ratio value is on record for Y[Aib]EGT[αMePhe(2-F)]TSDYSIXLDEKAQ[Aib]EFIVYLIEGGPSSGAPPPS-NH2 (not fully specified (residues 13, 17); printed as Y-Aib-EGT-αMeF(2F)-TSDYSI-αMeF-LDEK((2-[2-(2-Amino-ethoxy)-ethoxy]-acetyl)2-(γ-Glu)-CO-(CH2)18-CO2H)AQ-Aib-EFIVYLIEGGPSSGAPPPS-NH2) [Example 149]
### Response 0.484

### Prompt Look up hGLP1R cAMP EC50 ratio of Y[Aib][cTA]GT[αMeF]TSDYSIXLDEK([AEEA-AEEA-γGlu-C20 diacid])AQ[Aib]AFIEYLIEGGPSSGAPPPS-NH2 (not fully specified (residue 13); printed as Y-Aib-cTA-GT-αMeF-TSDYSI-αMeF-LDEK((2-[2-(2-Amino-ethoxy)-ethoxy]-acetyl)2-(γ-Glu)-CO-(CH2)18-CO2H)AQ-Aib-AFIEYLIEGGPSSGAPPPS-NH2) [Example 120] and report it.
### Response 0.319

### Prompt Consider the binder Y[Aib]EGT[αMePhe(2-F)]TSDYSIXLDEKAQ[Aib]EFIPYLIEGGPSSGAPPPS-NH2 (not fully specified (residues 13, 17); printed as Y-Aib-EGT-αMeF(2F)-TSDYSI-αMeF-LDEK((2-[2-(2-Amino-ethoxy)-ethoxy]-acetyl)2-(γ-Glu)-CO-(CH2)18-CO2H)AQ-Aib-EFIPYLIEGGPSSGAPPPS-NH2) [Example 151] and give its recorded hGLP1R cAMP EC50 ratio.
### Response 0.0278
